test system: SL3 cells; assay: Cell viability, cisplatin 48 h; assay type: cell-based, human; settings: cisplatin alone
REPORTED METRIC: IC50 (µM)
Could you give me the number in µM? Just the number is fine.

stdin: Param item = N.N.[Cl][Pt][Cl] [cisplatin] ; retrieve measured IC50.
stdout: 1.21
